Assay: Concentration (MIC)required to reduce virus-induced cytopathogenicity in Primary rabbit kidney (PRK ) cells against HSV-2 with a strain G
Assay type: functional
Details: Oryctolagus cuniculus
measurement_name: MIC

Prompt line: Entry Nc1ccn([C@@H]2O[C@H](CO)[C@H](F)[C@H]2O)c(=O)n1 needs its MIC filled in; supply it.
Response line: > 400 mg/L

Prompt line: Given the compound Cc1cn([C@@H]2O[C@H](CO)[C@@H](F)[C@H]2N=[N+]=[N-])c(=O)[nH]c1=O , write its reported MIC.
Response line: > 400 mg/L

Prompt line: Note down MIC recorded for Nc1nc(O)c2ncn([C@@H]3O[C@H](CO)[C@@H](F)[C@H]3O)c2n1
Response line: > 100 mg/L

Prompt line: Read the entry O=c1ccn([C@@H]2O[C@H](CO)[C@@H](F)[C@H]2O)c(=O)[nH]1 and write its reported MIC.
Response line: > 400 mg/L

Prompt line: Return the recorded MIC value; entry: Nc1ncnc2c1ncn2[C@@H]1O[C@H](CO)[C@@H](F)[C@H]1O
Response line: > 10 mg/L

Prompt line: State its MIC: [N-]=[N+]=NC1C(F)C(CO)OC1n1ccc(N)nc1=O (stereo unspecified)
Response line: > 400 mg/L
